# Measurement notes: compound enhancement of TRAIL-induced cell killing – NB7 cells plus caspase-8, luminescence, panel, dose response (AID 652002)
# Condition label: NB7 neuroblastoma +caspase-8, no TRAIL, compound-alone cytotoxicity counter-screen, luminescence viability; NB7+Caspase-8; run 1; single replicate panel EC50
Endpoint label: EC50

[ask] Record request: EC50 value, item CC(C)C[C@H](NC(=O)c1nc[nH]c1C(=O)N[C@@H](CCCCNC(=O)OC(C)(C)C)C(=O)OC(C)(C)C)C(=O)OCc1ccccc1
[reply] > 12.5 µM

Need EC50 for each of these compounds.
1. Cc1cccc(CC(=O)Nc2cc(C)c3c(=O)oc4ccccc4c3n2)c1
2. O=C(Nc1ccc2c(c1)OCCO2)NC1CCCCC1

[reply]
1: > 12.5 µM; 2: > 12.5 µM

Please give EC50 for each item listed below.
1. O=C(N/N=C/c1cccnc1)c1ccc2c(c1)OCO2
2. COc1ccc(/C=N/Nc2nc3ccccc3c(=O)n2-c2ccccc2)cc1OC

[reply]
11.2 µM
7.35 µM

Can you give me EC50 for all of these, one by one?
1. O=C(Nc1ccc2c(c1)OCO2)c1ccc2c(c1)OCO2
2. CCCC1(CCC)C(=O)NC(=NCc2ccccc2)NC1=O

[reply]
1. 6.92 µM
2. > 12.5 µM

Parameters: items (list). Returns: EC50 for each item.
1. CCCCC1CCC(C(=O)N(CCC(C)C)c2c(N)n(CCCC)c(=O)[nH]c2=O)CC1 (configuration not stated)
2. Cc1nc2cc(NC(=O)Nc3cccc([N+](=O)[O-])c3)ccc2n1C
3. CCOc1ccc(NC(=O)c2ccco2)cc1
4. O=C(NC(=O)c1ccccc1)Nc1ccccc1
5. Fc1ccc(-c2cnn3c(-c4ccncc4)ccnc23)cc1
6. COCCNC(=O)c1cc(-c2ccc(-c3ccccc3)cc2)nc2ccccc12

[reply]
1. > 12.5 µM
2. > 12.5 µM
3. 6.87 µM
4. > 12.5 µM
5. > 12.5 µM
6. > 12.5 µM
